Entries annotated with measured Ki
# target.or.system: E. coli Gyrase (Escherichia coli)
# assay.notes: DNA Gyrase ATPase assay (E. coli Gyrase Ki)
# Type: biochemical
# particulars: ATPase assay, 30° C., 0.9 mM ATP; read-out: E. coli Gyrase Ki Inhibition Ranges (Activity)

{"chem.smiles": "CCNC(=O)Nc1nc2cc(N3CCCC3=O)cc(-c3ncccn3)c2[nH]1", "measure.name": "Ki", "result": "< 50 nM"}
{"chem.smiles": "CCNC(=O)Nc1nc2cc(C(=O)O)cc(-c3ncccc3F)c2[nH]1", "measure.name": "Ki", "result": "> 100 nM"}
{"chem.smiles": "CCNC(=O)Nc1nc2cc(N3CCN(C(C)=O)CC3)cc(-c3ncccn3)c2[nH]1", "measure.name": "Ki", "result": "< 50 nM"}

# input Which measured Ki belongs to CCNC(=O)Nc1nc2cc(C(=O)OC)cc(-c3ncccc3F)c2[nH]1 , tested on E. coli Gyrase (Escherichia coli)?
# output < 50 nM

# input Any idea what Ki came out for CCNC(=O)Nc1nc2cc(OC)cc(-n3cccn3)c2[nH]1 on E. coli Gyrase (Escherichia coli)?
# output 50 to 100 nM

# input Could you share what Ki was measured for CCNC(=O)Nc1nc2cc(C#N)cc(-c3ncccc3F)c2[nH]1 , tested on E. coli Gyrase (Escherichia coli)?
# output 50 to 100 nM

# input Hello, I am looking for reported Ki with E. coli Gyrase (Escherichia coli) for CCNC(=O)Nc1nc2cc(C(=O)NC)cc(-c3ncccc3F)c2[nH]1 . Could you help?
# output < 50 nM

Measured values drawn from patent US8394803B2 for this set.
